- Tested on: HL-60
- Assay Explanation: area under dose-response curve (viability, 1 nM-10 uM) (fraction (0-1)); higher = more sensitive
- Assay Conditions: 72 h; co-treatment: DMSO vehicle
Quantity Measured: area under dose-response curve

# query: area under dose-response curve of entry Fc1ccc(CNc2ncnc3ccc(F)cc23)cc1 [Spautin 1]
0.0409

Then what about the compound c1ccc2nc(-c3nnc4sc(-c5cnccn5)nn34)ccc2c1 ?
< 0.0301

Then what about the compound O=C(Cc1cccc(OC(F)(F)F)c1)Nc1ccc(CCCCc2nnc(NC(=O)Cc3ccccn3)s2)nn1 [CB-839] ?
< 0.0301

Then what about the compound N=C(N)c1ccc(N=NNc2ccc(C(=N)N)cc2)cc1 [Diminazene] ?
< 0.0301

Then what about the compound O=c1[nH]c(=O)n([C@H]2C[C@H](O)[C@@H](CO)O2)cc1I [Idoxuridine] ?
< 0.0301
